SUBJECT OF TEST: Androgen Receptor (AR) protein (Homo sapiens, UniProt P10275, T878A)
Construct: endogenous in cells; host or cells: LNCaP
Sequence (P10275 whole entry T878A): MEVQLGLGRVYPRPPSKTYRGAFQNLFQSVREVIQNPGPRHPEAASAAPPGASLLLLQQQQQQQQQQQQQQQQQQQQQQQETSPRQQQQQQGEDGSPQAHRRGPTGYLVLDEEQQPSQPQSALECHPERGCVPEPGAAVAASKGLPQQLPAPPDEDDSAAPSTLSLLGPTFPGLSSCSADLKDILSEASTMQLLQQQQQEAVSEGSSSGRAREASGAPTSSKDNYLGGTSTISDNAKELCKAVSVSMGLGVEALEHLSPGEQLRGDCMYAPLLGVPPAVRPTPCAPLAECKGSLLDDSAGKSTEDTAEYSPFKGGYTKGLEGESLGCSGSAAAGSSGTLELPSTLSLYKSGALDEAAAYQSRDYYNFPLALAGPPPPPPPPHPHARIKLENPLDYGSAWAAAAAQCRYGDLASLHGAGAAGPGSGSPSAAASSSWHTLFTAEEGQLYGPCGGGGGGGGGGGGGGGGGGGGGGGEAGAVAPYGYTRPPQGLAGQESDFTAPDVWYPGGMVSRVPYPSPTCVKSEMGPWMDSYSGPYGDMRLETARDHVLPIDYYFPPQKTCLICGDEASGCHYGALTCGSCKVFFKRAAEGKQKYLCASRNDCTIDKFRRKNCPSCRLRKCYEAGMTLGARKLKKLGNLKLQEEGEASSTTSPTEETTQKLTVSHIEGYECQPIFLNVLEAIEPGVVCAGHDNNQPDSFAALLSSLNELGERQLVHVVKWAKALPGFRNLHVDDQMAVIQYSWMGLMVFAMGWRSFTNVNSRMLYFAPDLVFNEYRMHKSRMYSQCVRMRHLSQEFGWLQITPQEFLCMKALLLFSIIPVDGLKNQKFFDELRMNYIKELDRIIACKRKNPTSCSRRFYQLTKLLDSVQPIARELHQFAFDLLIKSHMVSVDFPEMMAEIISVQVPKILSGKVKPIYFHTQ
Sequence (Q96SW2 whole entry partner): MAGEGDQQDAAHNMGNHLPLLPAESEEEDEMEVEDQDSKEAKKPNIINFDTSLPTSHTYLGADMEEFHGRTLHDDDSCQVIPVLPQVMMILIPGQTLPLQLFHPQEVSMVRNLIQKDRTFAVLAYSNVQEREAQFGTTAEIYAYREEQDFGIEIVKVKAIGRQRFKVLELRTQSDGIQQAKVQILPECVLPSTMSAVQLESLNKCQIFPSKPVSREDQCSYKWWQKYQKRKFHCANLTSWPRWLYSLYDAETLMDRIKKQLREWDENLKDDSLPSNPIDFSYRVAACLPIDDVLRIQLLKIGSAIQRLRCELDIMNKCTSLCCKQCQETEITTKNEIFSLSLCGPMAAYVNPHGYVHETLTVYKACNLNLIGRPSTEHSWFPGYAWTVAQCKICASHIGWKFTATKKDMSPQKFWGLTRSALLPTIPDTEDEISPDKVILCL
ASSAY NOTES: Androgen Receptor (AR) protein degradation assay in LNCaP cells, western blotting
Format: cell-based
CONDITION PARAMETERS: 20 h, 0.01 μM compound
Each item that follows carries a reported inhibition at 0.01 µM.
OBSERVED PROPERTY: inhibition at 0.01 µM

| COMPOUND | SUBJECT OF TEST | VALUE OBSERVED |
| --- | --- | --- |
| C[C@@H]1CN(C2CN(c3ccc4c(c3)C(=O)N(C3CCC(=O)NC3=O)C4=O)C2)CCN1CC1CCN(c2ccc(NC(=O)C3CCN(c4ccc(C#N)c(C(F)(F)F)c4)CC3)nc2)CC1 (some centres unmarked) | Androgen Receptor (AR) protein (Homo sapiens, UniProt P10275, T878A) | 62% |
| N#Cc1ccc(N2CCC(C(=O)Nc3ccc(N4CCC(CN5CC6(CCN(c7ccc8c(c7)C(=O)N(C7CCC(=O)NC7=O)C8=O)CC6)C5)CC4)nc3)CC2)cc1Cl (centres unmarked) | Androgen Receptor (AR) protein (Homo sapiens, UniProt P10275, T878A) | 16% |
| C[C@@H]1CN(CC2CCN(c3ccc4c(c3)C(=O)N(C3CCC(=O)NC3=O)C4=O)CC2)CCN1CC1CCN(c2ccc(NC(=O)C3CCN(c4ccc(C#N)c(C(F)(F)F)c4)CC3)nc2)CC1 (some centres unmarked) | Androgen Receptor (AR) protein (Homo sapiens, UniProt P10275, T878A) | 69% |
| N#Cc1ccc(N2CCC(C(=O)Nc3ccc(N4CCC(CN5CCN(CC6CCN(c7ccc8c(c7)CN(C7CCC(=O)NC7=O)C8=O)CC6)CC5)CC4)cn3)CC2)cc1C(F)(F)F (centres unmarked) | Androgen Receptor (AR) protein (Homo sapiens, UniProt P10275, T878A) | 73% |
| CC1(C(=O)Nc2ccc(N3CCC(CN4CC5(CCN(c6ccc7c(c6)C(=O)N(C6CCC(=O)NC6=O)C7=O)CC5)C4)CC3)cn2)CCN(c2ccc(C#N)c(C(F)(F)F)c2)CC1 (centres unmarked) | Androgen Receptor (AR) protein (Homo sapiens, UniProt P10275, T878A) | 33% |
| C[C@H]1CN(CC2CCN(c3ccc(C(=O)NC4CCC(=O)NC4=O)nc3)CC2)CCN1CC1CCN(c2ccc(NC(=O)C3CCN(c4ccc(C#N)c(C(F)(F)F)c4)CC3)nc2)CC1 (some centres unmarked) | Androgen Receptor (AR) protein (Homo sapiens, UniProt P10275, T878A) | 30% |
| C[C@H]1CN(CC2CCN(c3ccc(NC(=O)C4CCN(c5ccc(C#N)c(C(F)(F)F)c5)CC4)nc3)CC2)CCN1CC1CCN(c2ccc3c(n2)CN(C2CCC(=O)NC2=O)C3=O)CC1 (some centres unmarked) | Androgen Receptor (AR) protein (Homo sapiens, UniProt P10275, T878A) | 59% |
| N#Cc1ccc(N2CCC(C(=O)Nc3ccc(N4CCC(CN5CCN(C6CCN(c7ccc8c(c7)C(=O)N(C7CCC(=O)NC7=O)C8=O)CC6)CC5)CC4)cn3)CC2)cc1C(F)(F)F (centres unmarked) | Androgen Receptor (AR) protein (Homo sapiens, UniProt P10275, T878A) | 85% |
| N#Cc1ccc(N2CCC(F)(C(=O)Nc3ccc(N4CCC(CN5CC6(CCN(c7ccc8c(c7)C(=O)N(C7CCC(=O)NC7=O)C8=O)CC6)C5)CC4)cn3)CC2)cc1C(F)(F)F (centres unmarked) | Androgen Receptor (AR) protein (Homo sapiens, UniProt P10275, T878A) | 60% |
| CN(CCC1CCN(c2ccc(NC(=O)C3CCN(c4ccc(C#N)c(C(F)(F)F)c4)CC3)nc2)CC1)C1CCN(c2ccc3c(c2)C(=O)N(C2CCC(=O)NC2=O)C3=O)CC1 (centres unmarked) | Androgen Receptor (AR) protein (Homo sapiens, UniProt P10275, T878A) | 35% |
| N#Cc1ccc(N2CCC(C(=O)Nc3ccc(OCC4CCN(CC5CCN(c6ccc7c(c6)C(=O)N(C6CCC(=O)NC6=O)C7=O)CC5)CC4)cn3)CC2)cc1C(F)(F)F (centres unmarked) | Androgen Receptor (AR) protein (Homo sapiens, UniProt P10275, T878A) | 73% |
| N#Cc1ccc(N2CCC(C(=O)Nc3ccc(N4CC5(CCN(CC6CN(c7ccc8c(c7)C(=O)N(C7CCC(=O)NC7=O)C8=O)C6)CC5)C4)cn3)CC2)cc1C(F)(F)F (centres unmarked) | Androgen Receptor (AR) protein (Homo sapiens, UniProt P10275, T878A) | 55% |
| N#Cc1ccc(N2CCC(C(=O)Nc3cnc(N4CCC(CCN5CCN(c6ccc7c(c6)C(=O)N(C6CCC(=O)NC6=O)C7=O)CC5)CC4)cn3)CC2)cc1C(F)(F)F (centres unmarked) | Androgen Receptor (AR) protein (Homo sapiens, UniProt P10275, T878A) | 35% |
| N#Cc1ccc(N2CCC(C(=O)Nc3ccc(CCN4CCN(CC5CCN(c6ccc7c(c6)C(=O)N(C6CCC(=O)NC6=O)C7=O)CC5)CC4)cn3)CC2)cc1C(F)(F)F (centres unmarked) | Androgen Receptor (AR) protein (Homo sapiens, UniProt P10275, T878A) | 69% |
| N#Cc1ccc(N2CCC(C(=O)Nc3ccc(N4CCC(CCN5CCN(c6ccc7c(n6)CN(C6CCC(=O)NC6=O)C7=O)CC5)CC4)cn3)CC2)cc1C(F)(F)F (centres unmarked) | Androgen Receptor (AR) protein (Homo sapiens, UniProt P10275, T878A) | 53% |
| N#Cc1ccc(N2CCC(C(=O)Nc3ccc(N4CCC(CN5CC6(C5)CN(c5ccc7c(c5)C(=O)N(C5CCC(=O)NC5=O)C7=O)C6)CC4)cn3)CC2)cc1C(F)(F)F (centres unmarked) | Androgen Receptor (AR) protein (Homo sapiens, UniProt P10275, T878A) | 75.5% |
| C[C@H]1CN(CC2CCN(c3ccc4c(n3)CN(C3CCC(=O)NC3=O)C4=O)CC2)CCN1CC1CCN(c2ccc(NC(=O)C3CCN(c4ccc(C#N)c(C(F)(F)F)c4)CC3)nc2)CC1 (some centres unmarked) | Androgen Receptor (AR) protein (Homo sapiens, UniProt P10275, T878A) | 70% |
| N#Cc1ccc(N2CCC(C(=O)Nc3cnc(N4CCC(CN5CC6(CCN(c7ccc8c(c7)C(=O)N(C7CCC(=O)NC7=O)C8=O)CC6)C5)CC4)cn3)CC2)cc1C(F)(F)F (centres unmarked) | Androgen Receptor (AR) protein (Homo sapiens, UniProt P10275, T878A) | 38% |
| N#Cc1ccc(N2CCC(C(=O)Nc3ccc(N4CCC(CN5CCC(COc6ccc7c(c6)C(=O)N(C6CCC(=O)NC6=O)C7=O)CC5)CC4)cn3)CC2)cc1C(F)(F)F (centres unmarked) | Androgen Receptor (AR) protein (Homo sapiens, UniProt P10275, T878A) | 68% |
| C[C@@H]1CN(CC2CCN(c3ccc(NC(=O)C4CCN(c5ccc(C#N)c(C(F)(F)F)c5)CC4)nc3)CC2)CCN1CC1CCN(c2ccc3c(n2)CN(C2CCC(=O)NC2=O)C3=O)CC1 (some centres unmarked) | Androgen Receptor (AR) protein (Homo sapiens, UniProt P10275, T878A) | 65% |
